Where do these numbers come from? They come from PubChem BioAssay AID651661.

measurement.notes: EWS/Fli-driven NR0B1 reporter inhibitors, primary screen, A673 cells, NR0B1 luciferase, luminescence, MLPCN library (AID 651661);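 also: firefly luciferase signal divided by Alamar Blue viability fluorescence both relative to DMSO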
assay.setup: viability-normalised, at 12.6 µM, active compounds read high
Among all 350,000 compounds or so, about 2,300 (0.66%) were called active. The sample as a whole holds a higher share of actives than the screen did.

{"compound": "CCS(=O)(=O)Nc1ccc2c(c1)C(=O)N(C)[C@H]1CC[C@H](CC(=O)Nc3ccccc3)O[C@@H]1CO2", "inhibition, %": -5.08}
{"compound": "CCCNC(=O)[C@H]1[C@H](CO)[C@H]2Cn3c(cccc3=O)[C@H]2N1Cc1ccccc1Cl", "inhibition, %": -2.68}
{"compound": "COc1ccc(/C=C/c2noc(-c3ccccc3OC(C)=O)n2)cc1", "inhibition, %": 6.55}
{"compound": "Cc1cc(-c2ccc(C)c(S(=O)(=O)Nc3ccc(S(N)(=O)=O)cc3)c2)on1", "inhibition, %": 5.81}
{"compound": "C[C@@H]1CN([C@@H](C)CO)C(=O)Cc2cc(NC(=O)Nc3ccc4c(c3)OCO4)ccc2O[C@@H]1CN(C)CC1CCCCC1", "inhibition, %": -9.05}
{"compound": "O=C(O)C(=Cc1ccc([N+](=O)[O-])cc1)CCc1ccccc1", "inhibition, %": 5.5}
{"compound": "CCNC(=O)Nc1ccc2c(c1)C(=O)N(C)[C@H]1CC[C@@H](CC(=O)N[C@H](C)c3ccccc3)O[C@@H]1CO2", "inhibition, %": 0.627}
{"compound": "Cc1noc(C)c1NC(=O)Nc1ccc2c(c1)CC(=O)N([C@H](C)CO)C[C@@H](C)[C@@H](CN(C)Cc1ccc(C(F)(F)F)cc1)O2", "inhibition, %": 7.38}
{"compound": "COCC(=O)Nc1ccc2c(c1)OC[C@H](C)NC[C@H](C)[C@H](OC)CN(C)C2=O", "inhibition, %": -2.88}
{"compound": "CO[C@@H]1CN(C)C(=O)c2cc(NC(=O)c3ccc(F)cc3)ccc2OC[C@H](C)N(C(=O)CN(C)C)C[C@H]1C", "inhibition, %": 1.32}
{"compound": "CCOC(=O)c1c(C)[nH]c2c1-c1ccccc1C(=O)C2=O", "inhibition, %": 75.3}
{"compound": "C[C@H](CO)N1C[C@H](C)[C@@H](CN(C)Cc2ccc(Cl)c(Cl)c2)Oc2ccc(NC(=O)Nc3ccc(C(F)(F)F)cc3)cc2CC1=O", "inhibition, %": 72.5}
{"compound": "C[C@@H]1CN([C@H](C)CO)C(=O)c2cccc(NS(=O)(=O)c3cn(C)cn3)c2O[C@H]1CN(C)S(=O)(=O)c1ccc(Cl)cc1", "inhibition, %": 1.45}
{"compound": "CC(=O)N1[C@H](CO)[C@H](c2ccc(-c3ccccc3)cc2)[C@H]1CNC(=O)NC(C)C", "inhibition, %": 0.423}
{"compound": "COc1ccc(NC(=O)C2Cc3c(-c4ccc(Cl)cc4)ccnc3O2)cc1 (configuration not stated)", "inhibition, %": -1.76}
{"compound": "COc1cc2[nH]c(=S)n(Cc3ccc(F)cc3)c(=O)c2cc1OC", "inhibition, %": 11.2}
{"compound": "C[C@@H]1CN([C@H](C)CO)C(=O)Cc2cc(NC(=O)Nc3ccccc3)ccc2O[C@H]1CN(C)Cc1ccc(Cl)c(Cl)c1", "inhibition, %": 9.7}
{"compound": "O=C1CN(S(=O)(=O)c2ccccc2)C[C@H]2[C@H](c3ccc(C#CCc4ccccc4)cc3)[C@@H](CO)N12", "inhibition, %": -2.75}
{"compound": "O=C1/C(=C\\c2ccc([N+](=O)[O-])cc2)CS(=O)(=O)C/C1=C/c1ccc([N+](=O)[O-])cc1", "inhibition, %": 74.9}
{"compound": "COc1ccc(-c2noc(CNC(=O)C(C)Oc3ccccc3)n2)cc1 (configuration not stated)", "inhibition, %": -7.08}
{"compound": "COc1ccc(CN(C)C[C@@H]2OCCCC[C@H](C)Oc3ccc(NC(=O)c4ccccc4)cc3C(=O)N([C@H](C)CO)C[C@H]2C)cc1", "inhibition, %": 4.63}
{"compound": "C[C@@H]1CCCCO[C@@H](CN(C)C(=O)Nc2ccc3c(c2)OCO3)[C@H](C)CN([C@H](C)CO)C(=O)c2cc(NC(=O)CCCN(C)C)ccc2O1", "inhibition, %": -6.47}
{"compound": "CCOC(=O)c1c(C)[nH]c(C(=O)OCC(=O)c2ccc(OC)cc2OC)c1C", "inhibition, %": -15.3}
{"compound": "O=C(NC[C@H]1CC[C@H]2[C@H](CN2Cc2cccc(Cl)c2)O1)C1CC1", "inhibition, %": 5.25}
{"compound": "COc1ccc(CNS(=O)(=O)c2cc(-c3cc(C)no3)ccc2C(C)C)cc1", "inhibition, %": 55.5}
{"compound": "CCOC(=O)c1c(NC(=O)CSc2nccc(=O)[nH]2)sc(C)c1C", "inhibition, %": 1.69}
{"compound": "CCOc1cc2[nH]c(=S)n(Cc3ccc(C(=O)N4CCN(C)CC4)cc3)c(=O)c2cc1OCC", "inhibition, %": 67.5}
{"compound": "COc1ccc(OC)c(NC(=O)c2sc3nc(C)cc(C)c3c2N)c1", "inhibition, %": -6}
{"compound": "COc1ccc(NC(=O)C2Cc3c(-c4ccc5c(c4)OCO5)ccnc3O2)cn1 (configuration not stated)", "inhibition, %": 52.6}
{"compound": "CC(=O)Nc1ccc(C=Cc2ccc([N+](=O)[O-])cc2)cc1", "inhibition, %": -72.7}
{"compound": "COc1ccc(Cn2c(=S)[nH]c3cc(C(=O)N4CCCCC4)ccc3c2=O)cc1", "inhibition, %": -2.4}
{"compound": "COCC(=O)Nc1ccc2c(c1)C(=O)N(C)[C@@H]1CC[C@@H](CC(=O)NCC(F)(F)F)O[C@H]1CO2", "inhibition, %": -7.87}

---

measurement.notes: EWS/Fli-driven NR0B1 reporter inhibitors, primary screen, A673 cells, NR0B1 luciferase, luminescence, MLPCN library (AID 651661);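 also: firefly luciferase signal divided by Alamar Blue viability fluorescence both relative to DMSO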
assay.setup: viability-normalised, at 12.6 µM, active compounds read high
The campaign covered roughly 350,000 compounds. About 2,300 (0.66%) were called active. Many of the other results were omitted from the sample, so actives are more common in it than they were.
inhibition for assorted molecules

{"molecule": "CC(=O)Nc1cccc(-c2ccnc3c2CC(C)(C(=O)NCc2ccco2)O3)c1 (stereo unspecified)", "inhibition": "47.3% (inactive)"}
{"molecule": "O=C(c1ccc(F)cc1)N1CC(=O)N2[C@H](C1)[C@@H](c1ccc(C#CC3CC3)cc1)[C@@H]2CO", "inhibition": "-6.65% (inactive)"}
{"molecule": "O=C1/C(=C/c2ccc(F)cc2)SC(=S)N1CCCC(=O)N1CCCCC1CCO (stereo unspecified)", "inhibition": "-2.88% (inactive)"}
{"molecule": "O=C(O)CCCCCNc1ncnc2ccc(Br)cc12", "inhibition": "-0.908% (inactive)"}
{"molecule": "CO[C@H]1CN(C)C(=O)c2cc(NS(=O)(=O)c3ccccc3)ccc2OC[C@H](C)N(C(=O)NC(C)C)C[C@@H]1C", "inhibition": "-7.63% (inactive)"}
{"molecule": "CNC(=O)C[C@@H]1CC[C@H]2[C@@H](COc3ccc(NC(=O)NCc4ccccc4)cc3C(=O)N2C)O1", "inhibition": "-5.62% (inactive)"}
{"molecule": "Cc1ccc(-c2nn(-c3ccccc3)cc2/C=C2\\SC(=S)N(CCCCCC(=O)O)C2=O)o1", "inhibition": "-10.8% (inactive)"}
{"molecule": "COc1ccc2c3c(n(C)c2c1)[C@H](CO)N(Cc1ccc(F)cc1)CC31CN(CC2CCOCC2)C1", "inhibition": "-3.68% (inactive)"}
{"molecule": "Cn1cnc(S(=O)(=O)N2CC[C@@H]3[C@H]2c2cc(C#Cc4cccc(F)c4)ccc2N[C@@H]3CO)c1", "inhibition": "0.925% (inactive)"}
{"molecule": "COc1ccc(NC(=O)CCCC(=O)c2ccccc2)cc1", "inhibition": "10.3% (inactive)"}
{"molecule": "COc1cccc(C(=O)Nc2ccc3c(c2)C(=O)N(C)C[C@@H](OC)[C@H](C)CN(C(=O)C2CCOCC2)[C@H](C)CO3)c1", "inhibition": "-12.9% (inactive)"}
